Measured values drawn from paper PMC12136788 for this set.

target: MSI1 full-length (mouse, UniProt Q61474 1-362); experiment: nsRBNS (natural sequence RNA bind-n-seq); RBNS binding buffer (assumed for nsRBNS): 25 mM Tris pH 7.5, 150 mM KCl, 3 mM MgCl2, 0.01% Triton X-100, 500 ug/ml BSA, 20 U/ml SUPERase-In, 4 C; UNK is unkempt and MSI1 is Musashi-1; names of the RNAs are library labels; protein concentration not given here; high values mean tight binding
Sequence (Q61474 whole entry): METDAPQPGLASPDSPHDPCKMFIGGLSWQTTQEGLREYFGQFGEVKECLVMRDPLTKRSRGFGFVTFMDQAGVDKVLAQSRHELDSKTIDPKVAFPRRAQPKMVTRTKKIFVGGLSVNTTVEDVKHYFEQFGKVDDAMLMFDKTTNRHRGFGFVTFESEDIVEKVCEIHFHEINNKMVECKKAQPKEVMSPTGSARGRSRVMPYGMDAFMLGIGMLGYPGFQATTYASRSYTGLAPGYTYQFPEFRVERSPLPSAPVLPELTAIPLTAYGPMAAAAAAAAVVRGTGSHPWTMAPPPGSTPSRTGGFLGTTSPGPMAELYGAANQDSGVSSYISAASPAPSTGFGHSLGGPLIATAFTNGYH
In all, about 5,800 sequences were measured (“enrichment r”: median about 0.54, highest 2% from about 16 on). The full list was thinned out, with the highest values kept by preference.
binding signal less than 0.8 enrichment R is Fulfilled; binding signal greater than or equal to 0.8 enrichment R is Not fulfilled.

Some solved entries appear below for comparison.
chr5:136976780:136976881:-|3pUTR|ENSG00000152377|msi1|FALSE|unique (ssRNA) RNA: GGGAGUUCUACAGUCCGACGAUCCUUAAAUUAGCAUGUUCCAAUCCAGUCGGCAUUGCCUGAAUACAGUAGCAUCAUACCUAUAGUUGGUCUUAGAUAAGAAAUGAACUACUUGAUAUAGCAAAGUCCUUUGGCUUCGUAAAUCAACAGAGGAUUGAGCAUCA = Not fulfilled
chrX:85861749:85861850:-|3pUTR|ENSG00000188419|msi1|FALSE|unique (ssRNA) RNA: GGGAGUUCUACAGUCCGACGAUCCUAAUUUAAAAUUUCAGAAAAUGCUAUUAAAGAAUUUUGAUUCAAGUAUUUAAACUGUUUAGUUAUGCAUGCUUCUUAUUAACCGAAAAUGAUAAUACCAUUUAGUUUAGUGAUCAGUAUCAACAGAGGAUUGAGCAUCA = Not fulfilled
chr18:3457781:3457936:+|CDS|ENSG00000177426|unk|total|mutant (ssRNA) RNA: GGGAGUUCUACAGUCCGACGAUCCAACACUCCUCCCCCUACUCCACCGGACCUCAACCAGGACUUCAGUGGAUUUCAGCUUCCCGUGGAUGUUGCACUCAAACGGGCUGCAGAGAUGGAGCUUCAGGCAAAACUUACAGCUUACAACAGAGGAUUGAGCAUCA = Fulfilled
chr11:62152232:62152344:+|3pUTR|ENSG00000149503|unk|total|mutant (ssRNA) RNA: GGGAGUUCUACAGUCCGACGAUCUGCUCUGUAAACCGUUGUUUUAAUUCCGCUGAAUGUCCGCAUUUCCGUCUUUGGCAUUUCCGCGUUUGGGAGGCCGAUUAAUAAAGUAUAUUCCUUCAAGCCUGCUGUUGAUACCAUGAACAACAGAGGAUUGAGCAUCA = Fulfilled
ENSG00000107863:be:win_4051|CDS|ENSG00000107863|bound_else_gene|NA|bound_elsewhere_windowed (ssRNA) RNA: GGGAGUUCUACAGUCCGACGAUCGUGCAGGAGGAAAGCACAGUAGACUCCCAGCCAGUGCCAAACAUAGAUCAUUUACUCACCAACAUUGGAAGGACAGGAGUCUCCCCAGGAGAUGUAUCAGAUUCAGCUACUAGUGACUCACAACAGAGGAUUGAGCAUCA = Not fulfilled

Shift focus to the following entry.
IN: Regarding chr8:9779869:9779970:+|3pUTR|ENSG00000173273|msi1|FALSE|unique (ssRNA) RNA: GGGAGUUCUACAGUCCGACGAUCGGAAUUUCUAGCUUUUCAAGCAGCAUAAGUAGAAUCAACAUUAGGAUGUUUUCAUGAAAUAGCAUCCUUAUACUUCUUUGAGCUUGAUGUUAGUGGCUAGACUGAUUUCCCUUUGCUCUCCAACAGAGGAUUGAGCAUCA , kindly confirm whether its binding signal is beneath 0.8 enrichment R.
OUT: Fulfilled
